Taken from a collection of fitness landscapes (doi:10.1016/j.celrep.2020.107928).

B1: Caulobacter ParB omega fusion; a variant is named by its letters at X, in order, B8GW30 (parent)
chain: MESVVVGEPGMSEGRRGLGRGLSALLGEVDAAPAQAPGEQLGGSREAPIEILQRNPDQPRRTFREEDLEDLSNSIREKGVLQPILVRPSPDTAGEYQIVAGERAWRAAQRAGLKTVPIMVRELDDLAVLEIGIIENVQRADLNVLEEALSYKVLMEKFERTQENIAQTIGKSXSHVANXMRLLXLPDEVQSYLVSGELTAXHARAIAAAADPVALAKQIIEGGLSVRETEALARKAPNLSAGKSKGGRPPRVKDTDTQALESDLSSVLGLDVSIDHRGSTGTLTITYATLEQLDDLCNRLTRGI

Variants of: B1
Test: one-hybrid fitness for binding parS DNA (scaled: cognate 1, non-cognate 0); higher = stronger binding
Conditions: with parS DNA site
In all, about 81,000 sequences were measured (“one-hybrid fitness for binding parS DNA”: median about -0.17, highest 2% from about 0.51 on). This excerpt belongs to a sample that is enriched for the highest values.

Change	one-hybrid fitness for binding parS DNA
ERQR	≤ 0.2
GEYT	≤ 0.2
RMAC	0.994
RMFC	0.966
RKWG	0.952
RIWM	0.361
QTFT	≤ 0.2
RMAK	≤ 0.2
DCRY	≤ 0.2
GWAG	≤ 0.2
QAKR	≤ 0.2
RMAF	0.253
HSEM	≤ 0.2
QIFK	≤ 0.2
SHRE	≤ 0.2
HSNV	≤ 0.2
RMFR	≤ 0.2
RHWQ	≤ 0.2
RFWG	0.744
RKWF	0.219
RMFN	0.459
LEDT	≤ 0.2
